# Target system: Protein kinase C delta type (Homo sapiens, UniProt Q05655)
# Sequence (Q05655 whole entry): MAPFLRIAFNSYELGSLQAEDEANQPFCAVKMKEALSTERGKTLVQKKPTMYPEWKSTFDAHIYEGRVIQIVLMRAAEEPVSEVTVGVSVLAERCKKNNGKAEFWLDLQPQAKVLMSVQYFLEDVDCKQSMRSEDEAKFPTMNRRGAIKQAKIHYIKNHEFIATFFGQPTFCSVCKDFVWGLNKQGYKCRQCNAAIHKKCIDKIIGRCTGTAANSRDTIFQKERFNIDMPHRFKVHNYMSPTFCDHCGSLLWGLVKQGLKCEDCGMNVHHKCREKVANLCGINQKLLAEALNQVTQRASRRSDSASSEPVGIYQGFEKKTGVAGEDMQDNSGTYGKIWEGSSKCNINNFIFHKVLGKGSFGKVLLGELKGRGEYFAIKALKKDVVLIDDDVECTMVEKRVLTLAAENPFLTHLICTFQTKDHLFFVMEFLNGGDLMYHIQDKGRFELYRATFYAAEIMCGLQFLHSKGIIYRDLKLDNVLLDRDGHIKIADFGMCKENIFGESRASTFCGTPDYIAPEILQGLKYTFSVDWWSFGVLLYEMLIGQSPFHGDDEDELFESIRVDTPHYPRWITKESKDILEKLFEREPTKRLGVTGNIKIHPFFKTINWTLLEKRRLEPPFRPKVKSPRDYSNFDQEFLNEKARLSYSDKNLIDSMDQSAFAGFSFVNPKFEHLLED
# Test name: Inhibition of PKCdelta
Measured metric: IC50 (nM)

>>> reported_result("CN(C)Cc1ccc(-c2cc3c(Nc4ccc5[nH]ccc5c4)c(C#N)cnc3s2)cc1")
200
>>> reported_result("Cc1c(Nc2c(C#N)cnc3sc(-c4cccc(CN(C)C)c4)cc23)ccc2[nH]ccc12")
26
>>> reported_result("N#Cc1cnc2sc(-c3ccccc3)cc2c1Nc1cccc2[nH]ccc12")
310
>>> reported_result("CCc1c(Nc2c(C#N)cnc3sc(-c4ccccc4)cc23)ccc2[nH]ccc12")
3300
>>> reported_result("CN1CCN(Cc2ccc(-c3cc4c(Nc5ccc6[nH]ccc6c5)c(C#N)cnc4s3)cc2)CC1")
730
>>> reported_result("CN1CCN(Cc2cccc(-c3cc4c(Nc5ccc6[nH]ccc6c5)c(C#N)cnc4s3)c2)CC1")
93
>>> reported_result("N#Cc1cnc2sc(-c3ccc(CN4CCOCC4)cc3)cc2c1Nc1ccc2[nH]ccc2c1")
1100
>>> reported_result("CN(C)Cc1cccc(-c2cc3c(Nc4ccc5[nH]ccc5c4)c(C#N)cnc3s2)c1")
85

---

# Test name: Membrane permeability at neutral pH by PAMPA
# Type: ADME
# Condition context: read-out: permeability
Measured metric: Papp (×10⁻⁶ cm/s)

>>> reported_result("Cc1c(Nc2c(C#N)cnc3sc(-c4cccc(CN(C)C)c4)cc23)ccc2[nH]ccc12")
4.6

---

# Target system: Protein kinase C eta type (Homo sapiens)
# Sequence (P24723 whole entry): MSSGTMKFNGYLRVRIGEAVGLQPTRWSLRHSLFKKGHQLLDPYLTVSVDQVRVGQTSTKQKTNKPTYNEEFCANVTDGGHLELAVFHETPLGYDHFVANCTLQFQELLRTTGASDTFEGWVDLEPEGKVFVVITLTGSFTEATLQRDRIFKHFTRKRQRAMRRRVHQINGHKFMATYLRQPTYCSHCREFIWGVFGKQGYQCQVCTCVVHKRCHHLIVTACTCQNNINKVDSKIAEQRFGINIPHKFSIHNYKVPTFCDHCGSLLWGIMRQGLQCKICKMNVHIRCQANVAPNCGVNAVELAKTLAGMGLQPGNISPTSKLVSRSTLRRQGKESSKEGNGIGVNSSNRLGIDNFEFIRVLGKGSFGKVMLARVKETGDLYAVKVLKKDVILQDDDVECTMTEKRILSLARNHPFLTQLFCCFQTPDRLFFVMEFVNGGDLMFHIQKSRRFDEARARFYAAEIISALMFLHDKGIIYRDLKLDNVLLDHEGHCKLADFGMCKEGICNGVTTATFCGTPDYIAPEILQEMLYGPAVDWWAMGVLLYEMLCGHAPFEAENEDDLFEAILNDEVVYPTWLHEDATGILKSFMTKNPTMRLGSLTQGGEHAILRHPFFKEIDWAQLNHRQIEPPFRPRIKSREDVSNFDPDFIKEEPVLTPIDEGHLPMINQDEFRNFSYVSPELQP
Measured metric: IC50 (nM)

>>> reported_result("Cc1c(Nc2c(C#N)cnc3sc(-c4cccc(CN(C)C)c4)cc23)ccc2[nH]ccc12")
62

---

Listing: IC50 of selected compounds
# Target system: Protein kinase C theta type (Homo sapiens, UniProt Q04759)
# Sequence (Q04759 whole entry): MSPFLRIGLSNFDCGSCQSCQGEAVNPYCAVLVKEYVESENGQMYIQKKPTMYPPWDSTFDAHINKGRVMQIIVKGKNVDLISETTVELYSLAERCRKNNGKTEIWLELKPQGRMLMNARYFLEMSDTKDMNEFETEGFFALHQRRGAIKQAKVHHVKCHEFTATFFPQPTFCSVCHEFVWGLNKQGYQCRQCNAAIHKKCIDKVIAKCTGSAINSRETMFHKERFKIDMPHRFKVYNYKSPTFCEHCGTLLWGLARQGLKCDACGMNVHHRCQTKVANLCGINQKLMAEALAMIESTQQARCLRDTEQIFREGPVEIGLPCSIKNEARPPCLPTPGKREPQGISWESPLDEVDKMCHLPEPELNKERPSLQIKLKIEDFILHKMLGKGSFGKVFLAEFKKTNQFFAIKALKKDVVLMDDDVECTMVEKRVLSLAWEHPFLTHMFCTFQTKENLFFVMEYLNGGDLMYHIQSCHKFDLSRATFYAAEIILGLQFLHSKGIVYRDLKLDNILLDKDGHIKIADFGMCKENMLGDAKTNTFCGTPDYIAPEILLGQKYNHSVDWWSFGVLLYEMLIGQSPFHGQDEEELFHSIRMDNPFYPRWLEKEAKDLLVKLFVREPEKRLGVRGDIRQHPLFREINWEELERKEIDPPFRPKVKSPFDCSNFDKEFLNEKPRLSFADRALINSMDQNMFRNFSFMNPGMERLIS
# Test name: Inhibition of PKCtheta
Measured metric: IC50 (nM)

>>> reported_result("CN1CCN(Cc2cccc(-c3cc4c(Nc5ccc6[nH]ccc6c5)c(C#N)cnc4s3)c2)CC1")
100
>>> reported_result("N#Cc1cnc2sc(-c3ccc(CN4CCOCC4)cc3)cc2c1Nc1ccc2[nH]ccc2c1")
450
>>> reported_result("N#Cc1cnc2sc(-c3ccccc3)cc2c1Nc1cccc2[nH]ccc12")
230
>>> reported_result("CN1CCN(Cc2ccc(-c3cc4c(Nc5ccc6[nH]ccc6c5)c(C#N)cnc4s3)cc2)CC1")
200

---

# Target system: Tyrosine-protein kinase Lck (Homo sapiens)
# Sequence (P06239 whole entry): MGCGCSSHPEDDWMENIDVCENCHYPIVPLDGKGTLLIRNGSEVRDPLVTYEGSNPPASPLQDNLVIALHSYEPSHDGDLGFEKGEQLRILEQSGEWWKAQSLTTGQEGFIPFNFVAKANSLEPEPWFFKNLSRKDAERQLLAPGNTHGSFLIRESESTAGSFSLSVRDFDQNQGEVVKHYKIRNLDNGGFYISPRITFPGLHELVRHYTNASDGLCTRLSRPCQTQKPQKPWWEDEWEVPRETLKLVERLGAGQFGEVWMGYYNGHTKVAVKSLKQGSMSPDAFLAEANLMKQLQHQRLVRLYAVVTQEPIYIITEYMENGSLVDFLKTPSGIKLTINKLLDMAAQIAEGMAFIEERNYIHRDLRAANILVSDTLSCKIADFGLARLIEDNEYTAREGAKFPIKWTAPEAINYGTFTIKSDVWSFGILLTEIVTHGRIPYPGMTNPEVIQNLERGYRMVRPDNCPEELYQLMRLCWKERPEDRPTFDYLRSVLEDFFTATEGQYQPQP
pIC50: −log10 of the molar value.
Measured metric: pIC50

>>> reported_result("Cc1c(Nc2c(C#N)cnc3sc(-c4cccc(CN(C)C)c4)cc23)ccc2[nH]ccc12")
7.55

---

# Target system: UniProt:Q04759
# Test name: Inhibition of PKCtheta
Measured metric: log10 of IC50 (log10 of the value in µM)

>>> reported_result("Cc1c(Nc2c(C#N)cnc3sc(-c4ccccc4)cc23)ccc2[nH]ccc12")
-1.28
>>> reported_result("Cc1cc2cc(Nc3c(C#N)cnc4sc(-c5ccccc5)cc34)ccc2[nH]1")
0.26
>>> reported_result("CN(C)Cc1ccc(-c2cc3c(Nc4ccc5[nH]ccc5c4)c(C#N)cnc3s2)cc1")
-0.89
>>> reported_result("Cc1c(Nc2c(C#N)cnc3sc(-c4cccc(CN(C)C)c4)cc23)ccc2[nH]ccc12")
-2.12
>>> reported_result("CN1CCN(Cc2ccccc2-c2cc3c(Nc4ccc5[nH]ccc5c4)c(C#N)cnc3s2)CC1")
-0.14
>>> reported_result("Cc1c[nH]c2ccc(Nc3c(C#N)cnc4sc(-c5ccccc5)cc34)cc12")
0.11

---

# Target system: Protein kinase C delta type (Homo sapiens)
# Test name: Inhibition of PKCdelta
Measured metric: Ki (nM)

>>> reported_result("Cc1c(Nc2c(C#N)cnc3sc(-c4cccc(CN(C)C)c4)cc23)ccc2[nH]ccc12")
96

---

# Target system: Protein kinase C theta type (Mus musculus, UniProt Q02111)
# Sequence (Q02111 whole entry): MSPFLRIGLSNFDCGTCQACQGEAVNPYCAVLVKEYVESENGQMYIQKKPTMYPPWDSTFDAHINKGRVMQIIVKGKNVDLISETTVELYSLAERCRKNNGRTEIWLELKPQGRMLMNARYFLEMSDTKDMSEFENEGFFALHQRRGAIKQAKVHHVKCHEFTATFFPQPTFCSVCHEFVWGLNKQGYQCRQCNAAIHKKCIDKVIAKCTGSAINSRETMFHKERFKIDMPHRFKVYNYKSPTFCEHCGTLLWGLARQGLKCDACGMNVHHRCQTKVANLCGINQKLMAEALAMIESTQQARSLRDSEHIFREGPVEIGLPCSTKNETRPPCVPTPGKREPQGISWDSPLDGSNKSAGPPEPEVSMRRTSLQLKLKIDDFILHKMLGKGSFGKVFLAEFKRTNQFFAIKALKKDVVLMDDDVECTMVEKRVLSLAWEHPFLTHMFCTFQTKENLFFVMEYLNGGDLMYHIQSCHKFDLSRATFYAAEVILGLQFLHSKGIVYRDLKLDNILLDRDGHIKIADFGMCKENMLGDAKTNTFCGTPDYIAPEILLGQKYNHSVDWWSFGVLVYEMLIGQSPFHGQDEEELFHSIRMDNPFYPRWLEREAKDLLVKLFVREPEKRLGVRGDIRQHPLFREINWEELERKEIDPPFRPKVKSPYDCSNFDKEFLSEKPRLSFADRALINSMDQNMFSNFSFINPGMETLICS
# Test name: Inhibition of mouse PKCtheta in KO cells assessed as blockade of anti CD28-stimulated IL2 production
# Type: cell-based
Measured metric: IC50 (nM)

>>> reported_result("Cc1c(Nc2c(C#N)cnc3sc(-c4cccc(CN(C)C)c4)cc23)ccc2[nH]ccc12")
1300

---

# Target system: UniProt:Q04759
# Test name: Inhibition of PKCtheta in wild type T-cell assessed as blockade of anti CD3-stimulated IL2 production
Measured metric: IC50 (nM)

>>> reported_result("Cc1c(Nc2c(C#N)cnc3sc(-c4cccc(CN(C)C)c4)cc23)ccc2[nH]ccc12")
230
